# target: CB1 receptor (Homo sapiens, UniProt P21554)
# Sequence (P21554 whole entry): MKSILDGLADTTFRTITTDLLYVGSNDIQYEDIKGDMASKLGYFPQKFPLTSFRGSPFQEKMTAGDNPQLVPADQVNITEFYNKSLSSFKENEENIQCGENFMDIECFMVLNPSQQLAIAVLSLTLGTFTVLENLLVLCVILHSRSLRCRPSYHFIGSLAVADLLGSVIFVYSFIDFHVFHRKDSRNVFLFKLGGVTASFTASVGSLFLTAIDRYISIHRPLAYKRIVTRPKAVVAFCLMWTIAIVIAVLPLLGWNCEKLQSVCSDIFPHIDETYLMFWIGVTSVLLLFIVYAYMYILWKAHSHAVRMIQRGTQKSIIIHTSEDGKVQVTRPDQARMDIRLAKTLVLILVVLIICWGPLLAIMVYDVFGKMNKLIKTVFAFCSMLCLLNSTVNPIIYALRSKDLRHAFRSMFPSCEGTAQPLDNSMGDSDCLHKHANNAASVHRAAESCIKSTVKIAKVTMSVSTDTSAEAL
# methodDescription: biochemical
# runParameters: hCB1 EC50 Rep 4, GTP-γ-35S turnover, replicate 4
metric: pEC50
Bear in mind: pEC50 is minus log10 of a mol/L concentration; give just that figure.

Prompt: What value of pEC50 has been recorded for this entry: CCCCCCC(C)(C)c1cc(O)c2c(c1)OC(C)(C)[C@@H]1CC=C(C(=O)O)C[C@@H]21
Completion: 5.25

====

# target: CB1 receptor (Homo sapiens, UniProt P21554)
# methodDescription: biochemical
# runParameters: hCB1 EC50 Rep 3, GTP-γ-35S turnover, replicate 3
metric: EC50 (µM)
Unit µM implied. Number only.

Prompt: Need EC50 of CCCCCCC(C)(C)c1cc(O)c2c(c1)OC(C)(C)[C@@H]1CC=C(C(=O)O)C[C@@H]21 , thanks.
Completion: 11.6

====

# target: hCB2 receptor (Homo sapiens)
# methodDescription: biochemical
# runParameters: hCB2 EC50 Mean (±SEM), GTP-γ-35S turnover, mean of 4 repetitions
metric: pEC50
// scale note: pEC50 = -log10(conc_M); give the bare number

Prompt: Fill blank: measured pEC50 of the compound CCCCCCC(C)(C)c1cc(O)c2c(c1)OC(C)(C)[C@@H]1CC=C(C(=O)O)C[C@@H]21 is ____.
Completion: 5.99

====

# target: hCB2 receptor (Homo sapiens)
# methodDescription: biochemical
# runParameters: hCB2 EC50 Rep 3, GTP-γ-35S turnover, replicate 3
metric: EC50 (nM)
Record the value in nM, omitting the unit from your answer.

Prompt: // query EC50 value for entry CCCCCCC(C)(C)c1cc(O)c2c(c1)OC(C)(C)[C@@H]1CC=C(C(=O)O)C[C@@H]21
Completion: 1230

====

# target: hCB2 receptor (Homo sapiens, UniProt P34972)
# Sequence (P34972 whole entry): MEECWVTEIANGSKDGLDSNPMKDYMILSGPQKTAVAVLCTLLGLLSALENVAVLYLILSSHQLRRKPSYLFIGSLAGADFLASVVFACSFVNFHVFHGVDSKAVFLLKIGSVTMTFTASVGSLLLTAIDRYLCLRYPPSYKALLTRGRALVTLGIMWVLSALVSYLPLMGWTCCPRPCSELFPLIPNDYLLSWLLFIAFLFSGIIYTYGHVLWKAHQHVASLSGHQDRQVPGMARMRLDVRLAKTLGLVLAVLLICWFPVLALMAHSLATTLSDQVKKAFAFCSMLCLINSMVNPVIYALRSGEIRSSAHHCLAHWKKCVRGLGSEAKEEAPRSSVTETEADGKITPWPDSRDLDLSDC
# methodDescription: biochemical
# runParameters: hCB2 EC50 Rep 2, GTP-γ-35S turnover, replicate 2
metric: EC50 (nM)
Your answer is read as nM, so omit the unit and give the number.

Prompt: Fill blank: measured EC50 of the molecule CCCCCCC(C)(C)c1cc(O)c2c(c1)OC(C)(C)[C@@H]1CC=C(C(=O)O)C[C@@H]21 is ____.
Completion: 815

====

# target: hCB2 receptor (Homo sapiens)
# methodDescription: biochemical
# runParameters: hCB2 EC50 Rep 4, GTP-γ-35S turnover, replicate 4
metric: pEC50
Expect pEC50 as a plain number equal to -log10 of the molar concentration.

Prompt: Param readout = pEC50; param system = hCB2 receptor (Homo sapiens); param query = CCCCCCC(C)(C)c1cc(O)c2c(c1)OC(C)(C)[C@@H]1CC=C(C(=O)O)C[C@@H]21 ; response: value
Completion: 5.96

====

# target: UniProt:P21554
# methodDescription: biochemical
# runParameters: hCB1 EC50 Rep 1, GTP-γ-35S turnover, replicate 1
metric: EC50 (µM)
Please give a number only; it is taken to be in µM.

Prompt: Query: EC50; subject: CCCCCCC(C)(C)c1cc(O)c2c(c1)OC(C)(C)[C@@H]1CC=C(C(=O)O)C[C@@H]21
Completion: 13.7

====

# target: hCB2 receptor (Homo sapiens, UniProt P34972)
metric: Ki (nM)
Report the value in nM with no unit label.

Prompt: Observed Ki on hCB2 receptor (Homo sapiens, UniProt P34972) for CCCCCCC(C)(C)c1cc(O)c2c(c1)OC(C)(C)[C@@H]1CC=C(C(=O)O)C[C@@H]21 [JBT-101] , please.
Completion: 51
